# Assay Info: Intrinsic toxicity of test compound in uninfected CEM cells (MTT)
# Run Parameters: human
// returns criterion not met unless CC50 at 168 h is strictly below 50 nM, in which case criterion met

Structure Notation	Answer Label
COc1ccc(COC(=O)NC[C@@H](C)C(=O)N[C@@H](Cc2ccccc2)[C@H](O)CN(CCC(C)C)S(=O)(=O)c2ccccc2)cc1	criterion not met
COc1ccc(S(=O)(=O)N(CC(C)C)C[C@@H](O)[C@H](Cc2ccccc2)NC(=O)c2ccccc2C)cc1	criterion not met
CSCCCN(C[C@@H](O)[C@H](Cc1ccccc1)NC(=O)OCc1ccccc1)S(=O)(=O)c1ccccc1	criterion met
COc1ccc(S(=O)(=O)N(CC(C)C)C[C@@H](O)[C@H](Cc2ccccc2)NC(=O)OCc2ccc[n+]([O-])c2)cc1	criterion not met
CC(C)CCN(C[C@@H](O)[C@H](Cc1ccccc1)NC(=O)[C@H](Cc1cnc[nH]1)NC(=O)c1ccc2ccccc2n1)S(=O)(=O)c1ccccc1	criterion met
COc1ccc(S(=O)(=O)N(CC(C)C)C[C@@H](O)[C@H](Cc2ccccc2)NC(=O)c2ccccc2Cl)cc1	criterion not met
CC(C)CCN(C[C@@H](O)[C@H](Cc1ccccc1)NC(=O)[C@H](CC(N)=O)NC(=O)c1ccc2ccccc2n1)S(=O)(=O)c1ccccc1	criterion not met
COc1ccc(S(=O)(=O)N(CC(C)C)C[C@@H](O)[C@H](Cc2ccccc2)NC(=O)OCc2cccnc2)cc1	criterion not met
CC(C)CCN(C[C@@H](O)[C@H](Cc1ccccc1)NC(=O)[C@H](CC(N)=O)NC(=O)c1ccc2ccccc2n1)S(C)(=O)=O	criterion met
CC(C)CCN(C[C@@H](O)[C@H](Cc1ccccc1)NC(=O)[C@@H](NC(=O)CN(C)C)C(C)(C)C)S(=O)(=O)c1ccccc1	criterion not met

---

# Target Or System: HIV protease (Human immunodeficiency virus type 1 group M subtype B)
# Construct: HIV protease is diluted in the assay buffer to a final enzyme concentration of 12.3 nanomolar, based on a molecular weight of 10,780
# Assay Info: biochemical
# Assay type: biochemical

Compound	IC50 [nM]
COc1ccc(S(=O)(=O)N(CC(C)C)C[C@@H](O)[C@H](Cc2ccccc2)NC(=O)c2cccc(OC)c2)cc1	30
COc1ccc(S(=O)(=O)N(CC(C)C)C[C@@H](O)[C@H](Cc2ccccc2)NC(=O)C2CCc3ccccc3C2)cc1 (stereo partly drawn)	10
COc1ccc(S(=O)(=O)N(CC(C)C)C[C@@H](O)[C@H](Cc2ccccc2)NC(=O)c2ccc(C)cc2C)cc1	23

---

Entries annotated with measured CC50 at 168 h
# Assay Info: Intrinsic toxicity of test compound in uninfected CEM cells (MTT)
# Run Parameters: human

Structure Notation	Unit Abbreviation	CC50 at 168 h
COc1ccc(S(=O)(=O)N(CC(C)C)C[C@@H](O)[C@H](Cc2ccccc2)NC(=O)OCc2ccncc2)cc1	µM	31
COc1ccc(S(=O)(=O)N(CC(C)C)C[C@@H](O)[C@H](Cc2ccccc2)NC(=O)c2c(C)cccc2C)cc1	µM	17
COc1ccc(S(=O)(=O)N(CC(C)C)C[C@@H](O)[C@H](Cc2ccccc2)NC(=O)c2ccccc2)cc1	µM	213
CC(C)CCN(C[C@@H](O)[C@H](Cc1ccccc1)NC(=O)OCc1ccccc1)S(=O)(=O)c1ccccc1	µM	0.027
CC(C)CN(C[C@@H](O)[C@H](Cc1ccccc1)NC(=O)OCc1cccnc1)S(=O)(=O)c1ccccc1	µM	62
O=C(N[C@@H](Cc1ccccc1)[C@H](O)CN(C1CCCCC1)S(=O)(=O)c1ccccc1)OCc1ccccc1	µM	0.011
COCCCN(C[C@@H](O)[C@H](Cc1ccccc1)NC(=O)OCc1ccccc1)S(=O)(=O)c1ccccc1	µM	0.015

---

# Target Or System: HIV protease (Human immunodeficiency virus type 1 group M subtype B)
# Construct: HIV protease is diluted in the assay buffer to a final enzyme concentration of 12.3 nanomolar, based on a molecular weight of 10,780
# Assay Info: biochemical
# Type: biochemical
# Run Parameters: Table 20; calculated IC50; enzyme 12.3 nanomolar, substrate 80 μM, pH 6.4
// returns False unless IC50 is strictly below 50 nM, in which case True

Compound	Target Or System	Answer Label
COc1ccc(S(=O)(=O)N(CC(C)C)C[C@@H](O)[C@H](Cc2ccccc2)NC(=O)c2ccccc2OC)cc1	HIV protease (Human immunodeficiency virus type 1 group M subtype B)	False
COc1ccc(S(=O)(=O)N(CC(C)C)CC(O)C(Cc2ccccc2)NC(=O)c2ccncc2)cc1 (stereo not shown)	HIV protease (Human immunodeficiency virus type 1 group M subtype B)	True
COc1ccc(S(=O)(=O)N(CC(C)C)CC(O)C(Cc2ccccc2)NC(=O)c2ccccc2)cc1 (stereo not shown)	HIV protease (Human immunodeficiency virus type 1 group M subtype B)	True
COc1ccc(S(=O)(=O)N(CC(C)C)CC(O)C(Cc2ccccc2)NC(=O)c2ccccc2Cl)cc1 (stereo not shown)	HIV protease (Human immunodeficiency virus type 1 group M subtype B)	True
COc1ccc(S(=O)(=O)N(CC(C)C)CC(O)C(Cc2ccccc2)NC(=O)c2cccnc2)cc1 (stereo not shown)	HIV protease (Human immunodeficiency virus type 1 group M subtype B)	False
COc1ccc(S(=O)(=O)N(CC(C)C)CC(O)C(Cc2ccccc2)NC(=O)c2ccc(C)cc2)cc1 (stereo not shown)	HIV protease (Human immunodeficiency virus type 1 group M subtype B)	True

---

# Target Or System: HIV protease (Human immunodeficiency virus type 1 group M subtype B, UniProt P04585)
# Construct: HIV protease is diluted in the assay buffer to a final enzyme concentration of 12.3 nanomolar, based on a molecular weight of 10,780
# Assay Info: biochemical
# Type: biochemical
# Run Parameters: Table 21; above-described enzyme assay
Result Type: IC50

Structure Notation	Target Or System	Observed Result
COc1ccc(S(=O)(=O)N(CC(C)C)C[C@@H](O)[C@H](Cc2ccccc2)NC(=O)c2cccc(O)c2C)cc1	HIV protease (Human immunodeficiency virus type 1 group M subtype B, UniProt P04585)	3 nM
COc1ccc(S(=O)(=O)N(CC(C)C)C[C@@H](O)[C@H](Cc2ccccc2)NC(=O)c2ccc(N)cc2C)cc1	HIV protease (Human immunodeficiency virus type 1 group M subtype B, UniProt P04585)	9 nM
COc1ccc(S(=O)(=O)N(CC(C)C)C[C@@H](O)[C@H](Cc2ccccc2)NC(=O)c2ccc(N(C)C)cc2C)cc1	HIV protease (Human immunodeficiency virus type 1 group M subtype B, UniProt P04585)	> 100 nM
CCCN(C[C@@H](O)[C@H](Cc1ccccc1)NC(=O)[C@H](CC(N)=O)NC(=O)OCc1ccccc1)S(=O)(=O)c1ccccc1	HIV protease (Human immunodeficiency virus type 1 group M subtype B, UniProt P04585)	3 nM
COc1ccc(S(=O)(=O)N(CC(C)C)C[C@@H](O)[C@H](Cc2ccccc2)NC(=O)c2cccc(N)c2C)cc1	HIV protease (Human immunodeficiency virus type 1 group M subtype B, UniProt P04585)	6 nM
COc1ccc(S(=O)(=O)N(CC(C)C)C[C@@H](O)[C@H](Cc2ccccc2)NC(=O)c2cc(N)ccc2C)cc1	HIV protease (Human immunodeficiency virus type 1 group M subtype B, UniProt P04585)	10 nM

---

# Assay Info: in vitro
# Run Parameters: human, cem cells

Structure Notation	CC50 at 168 h / µM
CCCN(C[C@@H](O)[C@H](Cc1ccccc1)NC(=O)[C@H](CC(N)=O)NC(=O)OCc1ccccc1)S(=O)(=O)c1ccccc1	0.039
COc1ccc(S(=O)(=O)N(CC(C)C)C[C@@H](O)[C@H](Cc2ccccc2)NC(=O)OC(C)(C)C)cc1	300
